Ref: patent US20110086759A1

System: Alopecurus myosuroides (ALOMY)
Test: Post-emergence biological efficacy, glasshouse pot test
Format: in vivo
Details: 312 h, Rate 1,000 g/ha, post-emergence spray, evaluated after 13 days (100=total damage to plant; 0=no damage to plant), read-out: Percentage damage caused to weed species, post-emergence, ALOMY
Param label: returns Met when pest or weed control at 1000 g/ha < 20%, returns Not met otherwise, including exact equality.

| molecule | group |
| --- | --- |
| COC(=O)c1nc(C2CC2)nc(N(CC=C(C)C)Cc2ccccc2C(F)(F)F)c1Cl | Met |
| C=CCN(Cc1cccs1)c1nc(C2CC2)nc(C(=O)OC)c1Cl | Met |
| COC(=O)c1nc(-c2ccc(Cl)c(C(F)(F)F)c2F)nc(NCc2ccco2)c1Cl | Not met |
| CCN(Cc1cccc(F)c1)c1nc(C2CC2)nc(C(=O)OC)c1Cl | Met |
| COC(=O)c1nc(-c2ccc(F)c(C(F)(F)F)c2)nc(NCc2ccco2)c1Cl | Not met |
| COC(=O)c1nc(-c2ccc(OC)cc2F)nc(NCc2ccco2)c1Cl | Met |
| CCCCN(Cc1ccccc1)c1nc(C2CC2)nc(C(=O)OC)c1Cl | Met |
| COC(=O)c1nc(-c2ccc(Cl)c(N(C)C)c2F)nc(NCc2ccco2)c1Cl | Not met |
| CC(C)OC(=O)c1nc(C2CC2)nc(NCc2ccco2)c1Cl | Not met |
| CCOc1ccc(CN(C)c2nc(C3CC3)nc(C(=O)OC)c2Cl)cc1OCC | Met |
| COC(=O)c1nc(C2CC2)nc(N(C)CC2OCCO2)c1Cl | Met |
| COC(=O)c1nc(-c2ccc(C(F)(F)F)cc2C(F)(F)F)nc(NCc2ccco2)c1Cl | Met |
| COC(=O)c1nc(-c2ccc(OC)cc2C)nc(NCc2ccco2)c1Cl | Met |
| COC(=O)c1nc(-c2ccc(Cl)s2)nc(NC2CC2)c1Cl | Met |
| COC(=O)c1nc(C2CC2)nc(N(C)Cc2ccco2)c1Cl | Not met |
| COC(=O)c1nc(-c2ccc(F)c(F)c2F)nc(NCc2ccco2)c1Cl | Not met |
| COC(=O)c1nc(-c2ccc(C)c(Cl)c2)nc(NCc2ccco2)c1Cl | Met |
| COC(=O)c1nc(-c2ccc(Cl)c(OC)c2F)nc(NCc2ccc(C)o2)c1Cl | Not met |
| COC(=O)c1nc(Cl)nc(NC2CC2)c1Cl | Met |
| COC(=O)c1nc(C2CC2)nc(N(C)C(C)C(O)c2ccccc2)c1Cl (stereo not shown) | Met |
| COC(=O)c1nc(C2CC2)nc(N(C)Cc2cccc(F)c2)c1Cl | Not met |
| COC(=O)c1nc(C2CC2)nc(N(C)Cc2ccc(C)o2)c1Cl | Not met |
| COC(=O)c1nc(C2CC2)nc(N(Cc2ccc(C)o2)C(C)C)c1Cl | Not met |
| COC(=O)c1nc(C2CC2)nc(N(C)Cc2ccc(N)cc2)c1Cl | Not met |
| COC(=O)c1nc(C2CC2)nc(N[C@@H](Cc2ccccc2)C(=O)OC(C)(C)C)c1Cl [4-293 (S)] | Met |
| COC(=O)c1nc(C2CC2)nc(N(C)Cc2cccnc2)c1Cl | Not met |

###

System: Setaria faberi (SETFA)
Experiment: Pre-emergence biological efficacy, glasshouse pot test
Assay type: in vivo
Conditions: 312 h, pre-emergence, rate 1,000 g/ha, evaluated after 13 days (100=total damage to plant; 0=no damage), read-out: Percentage damage caused to weed species, SETFA

| compound | study target | pest or weed control at 1000 g/ha |
| --- | --- | --- |
| C=CCCN(Cc1ccccc1)c1nc(C2CC2)nc(C(=O)OC)c1Cl [Compound 154-60] | Setaria faberi (SETFA) | 0% |
| C=CCN(Cc1ccccc1F)c1nc(C2CC2)nc(C(=O)OC)c1Cl [Compound 151-64] | Setaria faberi (SETFA) | 0% |
| C=Cc1c(NCc2ccco2)nc(C2CC2)nc1C(=O)OC [Compound 31-125] | Setaria faberi (SETFA) | 20% |
| COC(=O)c1nc(C2CC2)nc(N(Cc2ccccc2)CC(O)c2ccccc2)c1Cl (centres unmarked) [Compound 155-257] | Setaria faberi (SETFA) | 20% |
| CCCCN(Cc1ccccc1)c1nc(C2CC2)nc(C(=O)OC)c1Cl [Compound 147-60] | Setaria faberi (SETFA) | 0% |
| CCC(C)N(Cc1ccccc1)c1nc(C2CC2)nc(C(=O)OC)c1Cl (centres unmarked) [Compound 148-60] | Setaria faberi (SETFA) | 0% |
| COC(=O)c1nc(Cl)nc(NCc2ccccc2)c1Cl [Compound 207-35] | Setaria faberi (SETFA) | 0% |
| COC(=O)c1nc(-c2ccc(C)cc2F)nc(NCc2ccco2)c1Cl [Compound 257-48] | Setaria faberi (SETFA) | 10% |
| COC(=O)c1nc(C2CC2)nc(N(CCC#N)Cc2ccco2)c1Cl [Compound 161-125] | Setaria faberi (SETFA) | 0% |
| COC(=O)c1nc(C2CC2)nc(N(C)Cc2ccc(OC)cc2)c1Cl [Compound 5-80] | Setaria faberi (SETFA) | 20% |
| COC(=O)c1nc(-c2ccc(Cl)c(F)c2Cl)nc(NCc2ccco2)c1Cl [Compound 224-48] | Setaria faberi (SETFA) | 50% |
| CCOC(=O)c1nc(C2CC2)nc(NCc2ccco2)c1Cl [Compound 7-125] | Setaria faberi (SETFA) | 80% |
| COC(=O)c1nc(C2CC2)nc(N(C)Cc2ccccc2Cl)c1Cl [Compound 5-61] | Setaria faberi (SETFA) | 40% |
| COC(=O)c1nc(-c2ccc(Cl)cc2)nc(NC2CC2)c1Cl [Compound 40-1] | Setaria faberi (SETFA) | 30% |
| COC(=O)c1nc(C2CC2)nc(N(C)Cc2ccc(C)cc2)c1Cl [Compound 5-73] | Setaria faberi (SETFA) | 0% |
| C=CCN(Cc1ccccc1)c1nc(C2CC2)nc(C(=O)OC)c1Cl [Compound 151-60] | Setaria faberi (SETFA) | 10% |
| COC(=O)c1nc(-c2cc(F)c(Cl)c(F)c2)nc(NCc2ccco2)c1Cl [Compound 232-48] | Setaria faberi (SETFA) | 0% |
| CCN(Cc1ccc(Br)s1)c1nc(C2CC2)nc(C(=O)OC)c1Cl [Compound 6-142] | Setaria faberi (SETFA) | 10% |
| COC(=O)c1nc(-c2ccc(C)c(F)c2)nc(NCc2ccco2)c1Cl [Compound 240-48] | Setaria faberi (SETFA) | 0% |
| CCCOC(=O)c1nc(C2CC2)nc(NCc2ccco2)c1Cl [Compound 198-125] | Setaria faberi (SETFA) | 80% |
| C=CCN(Cc1ccc(F)cc1)c1nc(C2CC2)nc(C(=O)OC)c1Cl [Compound 151-66] | Setaria faberi (SETFA) | 0% |
| COC(=O)c1nc(C2CC2)nc(N(C)Cc2ccc(C(F)(F)F)cc2)c1Cl [Compound 5-77] | Setaria faberi (SETFA) | 0% |
| COC(=O)c1nc(C2CC2)nc(N(C)Cc2ccccc2[N+](=O)[O-])c1Cl [Compound 5-90] | Setaria faberi (SETFA) | 30% |
| COC(=O)c1nc(-c2ccc(Cl)c(Cl)c2Cl)nc(NCc2ccco2)c1Cl [Compound 231-48] | Setaria faberi (SETFA) | 20% |
| COC(=O)c1nc(-c2ccc(Cl)c(C)c2)nc(NCc2ccco2)c1Cl [Compound 216-48] | Setaria faberi (SETFA) | 30% |
| CCOC(=O)CCN(Cc1ccccc1)c1nc(C2CC2)nc(C(=O)OC)c1Cl [Compound 162-60] | Setaria faberi (SETFA) | 0% |
| COC(=O)c1nc(Cl)nc(NC2CC2)c1Cl [Compound 207-30] | Setaria faberi (SETFA) | 0% |
| COC(=O)c1nc(-c2ccc(OC)cc2)nc(NCc2ccco2)c1Cl [Compound 250-48] | Setaria faberi (SETFA) | 20% |
| COC(=O)c1nc(-c2ccc(OC)cc2F)nc(NCc2ccco2)c1Cl [Compound 258-48] | Setaria faberi (SETFA) | 20% |

###

Test system: Amaranthus retoflexus (AMARE)
Assay: Pre-emergence biological efficacy, glasshouse pot test
Format: in vivo
Details: Amaranthus retroflexus, 312 h; pre-emergence, 1,000 g/ha, evaluated after 13 days (100=total damage; 0=no damage); read-out: Percentage damage AMARE
Rule: rule met for pest or weed control at 1000 g/ha not less than 40%, rule not met for anything less.

| molecule | group |
| --- | --- |
| COC(=O)c1nc(C2CC2)nc(NCC(F)c2ccc(Cl)cc2Cl)c1Cl (stereo not drawn) | rule not met |
| COC(=O)c1nc(C2CC2)nc(NC2CCCC2O)c1Cl (stereo not drawn) | rule met |
| COC(=O)c1nc(C2CC2)nc(N[C@@H](Cc2ccc(O)cc2)C(=O)OC)c1Cl [4-287 (S)] | rule met |
| COC(=O)c1nc(C2CC2)nc(NCc2ccc(C(F)(F)F)cc2)c1Cl | rule met |
| COC(=O)c1ccc(CNc2nc(C3CC3)nc(C(=O)OC)c2Cl)cc1 | rule met |
| O=C(O)c1nc(C2CC2)nc(NCc2ccc(F)cc2)c1Cl | rule met |
| COC(=O)c1nc(C2CC2)nc(NCCc2c[nH]c3ccccc23)c1Cl | rule met |
| COC(=O)c1nc(C2CC2)nc(NCCc2cccs2)c1Cl | rule not met |
| COC(=O)c1nc(C2CC2)nc(N[C@H](C)c2cccc3ccccc23)c1Cl [4-184 (R)] | rule not met |
| COC(=O)c1nc(C2CC2)nc(NC(CO)C2CCOC2)c1Cl (stereo not drawn) | rule met |
| COC(=O)c1nc(C2CC2)nc(NCc2ccccc2[N+](=O)[O-])c1Cl | rule met |
| COC(=O)c1nc(C2CC2)nc(NC2CC2)c1Cl | rule met |
| COC(=O)c1nc(C2CC2)nc(NC2(/C=C/c3ccccc3Cl)CC2)c1Cl | rule met |
| COC(=O)c1nc(C2CC2)nc(NCCc2ccc(S(N)(=O)=O)cc2)c1Cl | rule not met |
| COC(=O)c1nc(C2CC2)nc(NC(CO)Cc2ccc(Cl)cc2)c1Cl (stereo not drawn) | rule met |
| CC(Nc1nc(C2CC2)nc(C(=O)O)c1Cl)c1ccc(Cl)cc1 (stereo not drawn) | rule not met |
| COC(=O)c1nc(C2CC2)nc(NCc2ccc(S(N)(=O)=O)cc2)c1Cl | rule not met |
| COC(=O)c1nc(C2CC2)nc(NCc2cc3cc(Br)ccc3o2)c1Cl | rule met |
| C=CCC(Nc1nc(C2CC2)nc(C(=O)OC)c1Cl)c1ccccn1 (stereo not drawn) | rule not met |
| COC(=O)c1nc(C2CC2)nc(NCCSCc2c(Cl)cccc2Cl)c1Cl | rule not met |
| COC(=O)c1nc(C2CC2)nc(NCCc2cc(C(F)(F)F)cc(Cl)n2)c1Cl | rule not met |
| COC(=O)c1nc(C2CC2)nc(NC(C)CCc2ccccc2)c1Cl (stereo not drawn) | rule not met |
| COC(=O)c1nc(C2CC2)nc(NCC2CCN(OC(=O)C(C)(C)C)CC2)c1Cl | rule met |
| COC(=O)c1nc(C2CC2)nc(NCc2ccco2)c1Cl | rule met |
| CCOC(=O)C(Nc1nc(C2CC2)nc(C(=O)OC)c1Cl)c1ccccc1 (stereo not drawn) | rule met |
| COC(=O)c1nc(C2CC2)nc(NCC2(O)CCc3ccc(OC)cc32)c1Cl (stereo not drawn) | rule met |
